System: Strep. pneumoniae ATCC 6305
Measurement Notes: MIC in Nutrient Broth No. 2
Type: cell-based, Streptococcus pneumoniae
Study Conditions: Nutrient Broth No. 2; without inducer
Procedure: Bacteria species as indicated in Table 1 were incubated for approximately 24 hours at 37° C. The tests were repeated with the addition of inducers. Methyl glycoside was the main inducer used, but other suitable inducers include isopropyl-β-D-thiogalactopyranoside, p-nitrophenyl-α-L-arabinopyranoside and p-nitrophenyl-β-D-xylopyranoside. Concentration of inducer in all cases was 100 μg/ml.
Readout Name: MIC (mg/L)
Report the value in mg/L with no unit label.

Field request: MIC | item: O[C@@H]1[C@H](Oc2cc(Cl)ccc2Oc2ccc(Cl)cc2Cl)OC[C@@H](O)[C@H]1O [β-D-Arabinoside, triclosan-β-D-arabinopyranoside]
64

Field request: MIC | item: OC[C@H]1O[C@H](Oc2cc(Cl)ccc2Oc2ccc(Cl)cc2Cl)[C@@H](O)[C@@H](O)[C@@H]1O [α-D-Mannoside, triclosan-α-D-mannopyranoside]
64

Field request: MIC | item: OC[C@H]1O[C@@H](Oc2cc(Cl)ccc2Oc2ccc(Cl)cc2Cl)[C@H](O)[C@@H](O)[C@@H]1O [β-D-Glucoside, triclosan-β-D-glucopyranoside]
128

Field request: MIC | item: OC[C@H]1O[C@H](Oc2cc(Cl)ccc2Oc2ccc(Cl)cc2Cl)[C@H](O)[C@@H](O)[C@@H]1O [α-D-Glucoside, triclosan-α-D-glucopyranoside]
32

Field request: MIC | item: OC[C@H]1O[C@H](Oc2cc(Cl)ccc2Oc2ccc(Cl)cc2Cl)[C@H](O)[C@@H](O)[C@H]1O [α-D-Galactoside, triclosan-α-D-galactopyranoside]
128

Data origin: patent US9908912B2
